The reported measurements were obtained from PubChem BioAssay AID1963870.

Examples of molecules with documented viability, T/C follow.
Tested on: 292921-168-R-J2-PDC KRAS tumor spheroid viability
measurement-protocol: Anticancer human tumor 292921-168-R-J2-PDC patient-derived pancreatic carcinoma cell line growth inhibition [KRAS2]
study-conditions: second compound 0.1 µM; first compound 10 µM; hits give low values; spheroids with HUVEC and MSC

>  <molecule>
CC(C)NCC(C(=O)N1CCN(c2ncnc3c2C(C)CC3O)CC1)c1ccc(Cl)cc1 (centres undefined) + COc1cc2nc(C)nc(NC(C)c3cc(N)cc(C(F)(F)F)c3)c2cc1OC1CCOC1

>  <target-or-system>
292921-168-R-J2-PDC KRAS tumor spheroid viability

>  <viability, T/C / %>
46.3

$$$$
>  <molecule>
CC1OCC2(CCN(c3cnc(Sc4ccnc(N)c4Cl)c(N)n3)CC2)C1N (centres undefined) + C=CC(=O)N1CCN(c2nc(OCC3CCCN3C)nc3c2CCN(c2cccc4cccc(C)c24)C3)CC1CC#N

>  <target-or-system>
292921-168-R-J2-PDC KRAS tumor spheroid viability

>  <viability, T/C / %>
26.8

$$$$
>  <molecule>
O=C(c1cc(Cc2n[nH]c(=O)c3ccccc23)ccc1F)N1CCN(C(=O)C2CC2)CC1 + C=CC(=O)N1CCN(c2nc(=O)n(-c3c(C)ccnc3C(C)C)c3nc(-c4c(O)cccc4F)c(F)cc23)C(C)C1

>  <target-or-system>
292921-168-R-J2-PDC KRAS tumor spheroid viability

>  <viability, T/C / %>
41.9

$$$$
>  <molecule>
CC1(C)CCC(CN2CCN(c3ccc(C(=O)NS(=O)(=O)c4ccc(NCC5CCOCC5)c([N+](=O)[O-])c4)c(Oc4cnc5[nH]ccc5c4)c3)CC2)=C(c2ccc(Cl)cc2)C1 + C=CC(=O)N1CCN(c2nc(OCC3CCCN3C)nc3c2CCN(c2cccc4cccc(C)c24)C3)CC1CC#N

>  <target-or-system>
292921-168-R-J2-PDC KRAS tumor spheroid viability

>  <viability, T/C / %>
4.98

$$$$
>  <molecule>
CC(C)NCC(C(=O)N1CCN(c2ncnc3c2C(C)CC3O)CC1)c1ccc(Cl)cc1 (centres undefined) + CC1OCC2(CCN(c3cnc(Sc4ccnc(N)c4Cl)c(N)n3)CC2)C1N

>  <target-or-system>
292921-168-R-J2-PDC KRAS tumor spheroid viability

>  <viability, T/C / %>
36.8

$$$$
>  <molecule>
COC(=O)c1ccc2c(C(=Nc3ccc(N(C)C(=O)CN4CCN(C)CC4)cc3)c3ccccc3)c(O)[nH]c2c1 + COc1cc2nc(C)nc(NC(C)c3cc(N)cc(C(F)(F)F)c3)c2cc1OC1CCOC1

>  <target-or-system>
292921-168-R-J2-PDC KRAS tumor spheroid viability;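 further: drug exposure lasted seven days after spheroids formed for three days; percent of DMSO vehicle control viability which is 100%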

>  <viability, T/C / %>
0.28

$$$$
>  <molecule>
CC(C)NCC(C(=O)N1CCN(c2ncnc3c2C(C)CC3O)CC1)c1ccc(Cl)cc1 (centres undefined) + C=CC(=O)N1CCN(c2nc(OCC3CCCN3C)nc3c2CCN(c2cccc4cccc(C)c24)C3)CC1CC#N

>  <target-or-system>
292921-168-R-J2-PDC KRAS tumor spheroid viability;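 further: drug exposure lasted seven days after spheroids formed for three days; percent of DMSO vehicle control viability which is 100%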

>  <viability, T/C / %>
51.8

$$$$
>  <molecule>
Cn1nccc1Nc1nccc(-c2cc3c(s2)C(C)(C)N(CCN2CCOCC2)C3=O)n1 + C=CC(=O)N1CCN(c2nc(=O)n(-c3c(C)ccnc3C(C)C)c3nc(-c4c(O)cccc4F)c(F)cc23)C(C)C1

>  <target-or-system>
292921-168-R-J2-PDC KRAS tumor spheroid viability;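 further: drug exposure lasted seven days after spheroids formed for three days; percent of DMSO vehicle control viability which is 100%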

>  <viability, T/C / %>
11.1

$$$$
>  <molecule>
COc1cc(Nc2ncc3c(n2)-c2ccc(Cl)cc2C(c2c(F)cccc2OC)=NC3)ccc1C(=O)O + C=CC(=O)N1CCN(c2nc(OCC3CCCN3C)nc3c2CCN(c2cccc4cccc(C)c24)C3)CC1CC#N

>  <target-or-system>
292921-168-R-J2-PDC KRAS tumor spheroid viability;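 further: drug exposure lasted seven days after spheroids formed for three days; percent of DMSO vehicle control viability which is 100%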

>  <viability, T/C / %>
15.9

$$$$
